System: MS2 coat protein
Assay: apparent KD of MS2 coat protein; designed switch direction (-1 OFF switch, 1 ON switch): -1; higher = weaker reporter binding
Conditions: input ligand: FMN 200 uM
Please note: condition met applies when apparent KD of MS2 coat protein is 60 nM or greater, and condition not met applies otherwise.

Assess whether reported apparent KD of MS2 coat protein for UUGAAAGGUGUAGGAUAUGUAUGAGGAUCACCCAUUAAUAAAUUUUAACCACGAGGAUCACCCGUGUAGAAGGACACCUUUCAA [pwkr exNG2 2xF5 1xFMN.18] (Eterna round: R96, puzzle: Exclusion NG 2) sits at 60 nM or higher. condition not met

Repeat with CAGUACUGAGGAUAUACAUGAGGAUCACCCAUGUGAGAGUUACUAGUGAGGUCGAUUAGUAGAAGGCAGUACUG [Mat X3R4 m29] (Eterna round: R97, puzzle: Exclusion 3) condition met

Repeat with AUUGUUUAUGUAGGAUAUGCCUGGCGUGCCUUUGCAGAAGGACAUGAGGAUCACCCAUGUAACAUGAGGCUCACCCAUGUCGCA [salish99_ExNG1_r04_113] (Eterna round: R96, puzzle: Exclusion NG 1) condition met

Repeat with AUCCAACAUGAGGAUCACCCAUGUCAGGAUAUACCCAUCUCCACCUAAUCGGUGGUGGGUAGAAGGGAUAUGUC [EX1 B.10] (Eterna round: R97, puzzle: Exclusion 1) condition not met

Repeat with ACAAGCUUGUAAUGACUUAACAUGAGGAUCACCCAUGUAAAUGGAAGAACCAACUUGAUAUGAUUUACUCGUCUUAU [JR_STOV1_Sub010] (Eterna round: R97, puzzle: Sensor, turn-off variant 1) condition met

Repeat with GAAACCAGAGGAUAUGCGAAUAAAUAAAACUUUUUUUUUUAACAUGAGGAUCACCCAUGUAGAAGGCUGCAAAU [Ex2 #34] (Eterna round: R97, puzzle: Exclusion 2) condition not met

Repeat with CCAUGGGAGCGAGGAUAUAGACCAUGGGAAGAGCUAGAAGGCGCUGACAUGAGGAUCACCCAUGUGUUCAUGAGGAGGUGGACA (Eterna round: R96, puzzle: Exclusion NG 1) condition met

Repeat with GCUGGUCGAGGAUAUACAAUCGUGCUUCGGCACGUAAGGUCACAUGAGGAUCACCCAUGUAGAAGGUGACCAGC [E2/2-B1] (Eterna round: R97, puzzle: Exclusion 2) condition not met

Repeat with GCUGGUCGAGGAUAUACAUGAGGAUCACCCAUGUGGUUACGUGACGAUAGUCACGAAUGUAGAAGGCGACCAGC [E3/4-A1] (Eterna round: R97, puzzle: Exclusion 3) condition met

Repeat with UUGUUAUAUGUAGGAUAUGCGUGUUGUUAUUAGGCAGAAGGACAUGAGGAUCACCCAUGUAUGUUGUUGUUAUAUAUUAUAUAU [Title] (Eterna round: R96, puzzle: Exclusion NG 1) condition not met

====

Tested on: K4 kissing-loop RNA reporter
Assay: apparent KD of K4 kissing-loop reporter; higher = weaker reporter binding
Settings: Eterna round: R107; input ligand: none
Entries and their measured apparent KD of K4 kissing-loop reporter follow.
Numbers only; they are read as nM.

Field request: apparent KD of K4 kissing-loop reporter | item: UCCUGCAAUCGACCACGAAAGUGGUUCGAUACCAGAGUCGAAAGACUCCCUUGGCAGCGAGUGAUGUUCGAGCAGGUAAAAUAAA 567

Repeat with AGACUACCACACUGUCAAUAGACAGUGAGCUAGGAUAUGCUGAUAAGCAGAAGGAGUGAUGUUCCUAGGUAGUCAAUAAAAUAAU [FmnAX 13 G29] 435

Repeat with CUAUGGAAACAUAGUAGUCGGGAAACCGAUACCAGUAUGGAAACAUACCCUUGGCAGCGGAAUGAUUAAACGGAGUGAUGUUCCG [Theophylline A K4 18] 292

====

System: MS2 coat protein
Test: apparent KD of MS2 coat protein; higher = weaker reporter binding
Settings: Eterna round: R107; input ligand: theophylline 20 uM
outcomeMeasure: apparent KD of MS2 coat protein (nM)
Numbers only; they are read as nM.

Study these solved cases before continuing.
INSERT INTO results (sequencerecord, testvalue) VALUES
  ('UCAGGAAGAGCGGCCGCCACUGUUUGGCAUGCGGAUGAAGGAACAUGAGGAUCACCCAUGUAGAUUAGGACCGGGCUUGCGGAGA [szeemullin]', 24.2),
  ('AUAUGAUCAUGUGAUACCAGAAAUGGUAUUCCUCGCUGGAUUACAUGAGGAUCACCCAUGUUCCCUUGGCAGCAUAUGAUCAUAU [#01 Exclusion-TheophyllineB]', 36.3);

Turning to the following sequence.
Field request: apparent KD of MS2 coat protein | item: GCUAGUGGCAGAAGGAGCGGCAUACUUGCAAGUGACAUGAGGAUCACCCAUGUAAGGGAAUGCCAGGUAGGUCGCUGCCACUAGC [EAB NP+V+V2 #1 +-Same Structure] 54.5

====

Tested on: K4 kissing-loop RNA reporter;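 further: bound reporter read as fluorescence of individual clusters on recovered sequencing chips by microscopy, with normalized cluster intensities fitted with a binding model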
Experiment: apparent KD of K4 kissing-loop reporter; higher = weaker reporter binding
Details: Eterna round: R107; input ligand: none
Entries and their measured apparent KD of K4 kissing-loop reporter follow.
Numbers only; they are read as nM.

Study these solved cases before continuing.
INSERT INTO measurements (sequencerecord, testvalue) VALUES
  ('CUCGUGGGUUUGAGAGGGCUUGUGGGAAGUGAGGAUAUUUAGGGAGGGAGAAGGUACUAUAGAAUAUAGUGAUGUUAUAUAUGGG [SSFMNA.U]', 185),
  ('AGGUACAAAAGUACCGCUAGAUCCACGGAAGGAGCGCCCGAAAGGGCAGGUAGGUCGCCGGGCAGUGAUGUUGCCGGAUCUAGCA [Omei KL Arginine A SS A v6]', 156),
  ('AGCGGCCAGUCGGCCGCCACUCCAAGCAGUGAUGUUGCUAAGUUUCUACAAGAGUGAUGUUCUUAGAGGACCGGGACUGAUGUGA [Exclusion Tryptophan B Gf 7]', 211);

Field request: apparent KD of K4 kissing-loop reporter | item: AGCCGAAAGGCGAGUGCUGUCACUCCGGAAGGAGCGCAGGAAACUGCAGGUAGGUCGCCGGAGUGAUGUUCCGGUGCAGCACUCA [Omei KL Arginine A Exc B v6] 1120

Repeat with UGUCAUUGGUCUGAUACCAGUUGAUAAACUGGAGUGAUGUUCCUCGACGAAUACGUCGACAACCCUUGGCAGCAGACCGAUGACU [TheoBS 14 #SwitchBubble 13 #StaticStem] 713

Repeat with ACCAUCAAAGAUGGCCUCGACACCGCUGAUACCAGAGUGAAAACACUCCCUUGGCAGCAGGUGAGUGAUGUUCACAGUCGAAGGA [Omel KL Theo A SS B v1] 641

====

Entries and their measured apparent KD of MS2 coat protein follow.
Test system: MS2 coat protein
Experiment: apparent KD of MS2 coat protein; higher = weaker reporter binding
Settings: Eterna round: R107; input ligand: theophylline 20 uM
Numbers only; they are read as µM.

INSERT INTO results (sequencerecord, valueunits, testvalue) VALUES
  ('AGCGACAUGCAUGAUACCAGCUACAUGAGGAUCACCCAUGUACGUCAGUAAUGACUGUGUAGCCCUUGGCAGCAUAAAGCAUGUC [Exclusion - Theophylline B (Freestyle 17)]', 'µM', 0.0445),
  ('UAGUACAUGAGGAUCACCCAUGUCGGAGGUCGAGGACCGGUACGGCCGCCACUCGGUCAUGCCCUACGAUACGACAGGAAUCUGU [theeternabot_sameState_MS2_Trp_A_28]', 'µM', 0.0365),
  ('UGGUACAUGAGGAUCACCCAUGUUCCAGAUACCAGCGUCCCGGUGCGCCCUUGGCAGCUGGUGGUACAUGAGGAUCACCCAUGUG [Exclusion Theophylline A GF14]', 'µM', 0.05),
  ('CCAUAAGUACCGGUCCUCAGAUCCUCAUGACGAGGACCGGUACGGCCGCCACUCGAAACAUGAGGAUCACCCAUGUAAUAAUAUC [Brourdmod17]', 'µM', 0.0531),
  ('GCUGCCAUACGAAGGAGCGCUGUUGUAGUGAGGCGAACAUGAGGAUCACCCAUGUGGCAGCAGCAGGUAGGUCGCGUAUGGCAGC [EAB #13]', 'µM', 0.035);

Field request: apparent KD of MS2 coat protein | item: UUACACAUCUCGGCCGCCACUGGCUUCAAAAUAAUGUGUACAUGAGGAUCACCCAUGUCCGAGCUCAGGACCGGGAGCAAAGAAG [SS Tryp B #14] 0.0292

====

Tested on: MS2 coat protein
Experiment: apparent KD of MS2 coat protein; designed switch direction (-1 OFF switch, 1 ON switch): -1; higher = weaker reporter binding
Conditions: input ligand: none
Entries and their measured apparent KD of MS2 coat protein follow.
Numbers only; they are read as nM.

Study these solved cases before continuing.
INSERT INTO measurements (sequencerecord, testvalue) VALUES
  ('AGAGUAAUGCGAGGAUAUACAUGAGGAUCACCCAUGUGGUGGUGUGAGGCAAAGCCUCACACCAUGUAGAAGGCGCAUUACUCA [Mat - Exclusion NG 2 - Mod of JL - D21] (Eterna round: R96, puzzle: Exclusion NG 2)', 39.3),
  ('UAAAAUUUAGGAUAUGCGUGAGAUAGAGUACGAUGAGCUGCACAUGAGGAUCACCCAUGUAGAAGGAAAUUUUA [-11, -8.6 kcal, 36% A] (Eterna round: R97, puzzle: Exclusion 2)', 31.2),
  ('ACAUGUAUUGCAGGAUAUGGGACACAUGAGGAUCACCCAUGUGACUACAUGUCAUACCACGGGUCUCAGAAGGGUAUGUACAUG [Ex NG2 #40] (Eterna round: R96, puzzle: Exclusion NG 2)', 23),
  ('GUUUUGAGACGGAGAUCCGACAUGAGGAUCACCCAUGUCUCACAAGCUUUUUGCUCGUCUUAUACUCCUCUGUUCUC [Elimod 44 - Jieux - Sensor, turn-off variant 1] (Eterna round: R97, puzzle: Sensor, turn-off variant 1)', 17.6),
  ('UCGACGUCGUCAGGAUAUAGUUUUAAUGUCAUGCUUUUGUUUUUACAUGAGGAUCACCCAUGUCGCUAGAAGGGACUAAAGAUU [JR_ExcNG2_Sub013] (Eterna round: R96, puzzle: Exclusion NG 2)', 41.7),
  ('ACGCUAUGAGGAUAUACAUGAGGAUCACCCAUGUCCCGAUGGUGUUUCCAUUGGAGACGUAGAAGGUAUGGUUA [Eternabot (L2) Solution 13] (Eterna round: R97, puzzle: Exclusion 3)', 172);

Field request: apparent KD of MS2 coat protein | item: GCAAGCUUUUUCGUGGGUGACAUGAGGAUCACCCAUGUUUGCCACGUCUUGUGGGCCCGGGCCCGCGGCCCGGGCCC [-44.9, -65.2, A 12%] (Eterna round: R97, puzzle: Sensor, turn-off variant 1) 67.6

Repeat with AACAGGUCAGGAUAUACAUGAGGAUCACCCAUGUAGACUUCUAGUCUACCGAGGCUGUGUAGAAGGGACCUGAA [Exclusion 3 (MOD4 of #98 Marzena11)] (Eterna round: R97, puzzle: Exclusion 3) 43.3

Repeat with UUAUUUAGGUAGGAUAUCGAUACCAAUUACUAUCGAGAAGGGUCUACAUGAGGAUCACCCAUGUUAGCAUGUUU [LRO-Excl6-12-Rocketman] (Eterna round: R97, puzzle: Exclusion 6) 24.9
